- System: Es-2
- Experimental Details: Primary qHTS to identify gynecologic anti-cancer compounds using libraries of approved drugs and bioactive compounds (AID 1345084); note: nearly all actives have a fitted effect of over 55% in size
- Measurement Conditions: Gynecologic cancer cell panel viability, ATPlite luminescence, 48 h; series mostly up to 57.5 µM
Results filed as inconclusive are left out. Activity calls are given as the source filed them. Calls come from the whole dose curve; as a rule, active = well fitted cell-killing curve with a large enough effect; inconclusive = small, poorly fitted or top-dose-only effect, or effect the other way; inactive = flat fitted curve, though single readings scatter.
Outcome codes: active, inactive

{"columns": ["Compound", "Category Label"],
 "data": [
  ["C[C@@H](O[C@H]1OCCN(Cc2n[nH]nc2CN(C)C)[C@H]1c1ccc(F)cc1)c1cc(C(F)(F)F)cc(C(F)(F)F)c1", "inactive"],
  ["CN[C@@H]1[C@@H](O)[C@@H](O[C@@H]2[C@@H](O)[C@H](O[C@H]3O[C@@H]([C@@H](C)NC)CC[C@H]3N)[C@@H](N)C[C@H]2N)OC[C@]1(C)O", "inactive"],
  ["COc1ccc(C(=O)N(CCC(C)C)Cc2nc(C)c(C)n2Cc2ccccc2C)c(OC)c1", "inactive"],
  ["O=C(Nc1ncc(SCCN2CCCC2)s1)C1(c2ccc(S(=O)(=O)C3CC3)cc2)CC1C1CCCCC1 (stereo not given)", "inactive"],
  ["C=C1CC[C@@H]2[C@](C)(CO)[C@H](O)CC[C@@]2(C)[C@@H]1C/C=C1/C(=O)OC[C@@H]1O", "inactive"],
  ["CNc1cc(OC)c(C(=O)N[C@@H]2CCN(Cc3ccccc3)[C@@H]2C)cc1Cl", "inactive"],
  ["COC1CC(=O)C23C(=O)NC(CC(C)C)C2C(C)C(C)=CC3/C=C(\\C)CCC(O)C1O (stereo not given)", "inactive"],
  ["CC1(C)SC2C(NC(=O)[C@H](NC(=O)N3CCNC3=O)c3ccccc3)C(=O)N2C1C(=O)O (stereo not given in full)", "inactive"],
  ["C[C@@H](c1nc(-c2ccc(C#N)cc2)cs1)[C@](O)(Cn1cncn1)c1cc(F)ccc1F", "inactive"],
  ["CC1CCN(c2cc(NC(=O)c3ccccc3)ncn2)CC1", "inactive"],
  ["C=C(C)[C@@H]1CC[C@]2(C(=O)O)CC[C@]3(C)C(CCC4[C@@]5(C)C[C@@H](O)[C@H](O)C(C)(C)C5CC[C@]43C)C12 (stereo not given in full)", "inactive"],
  ["C[C@@H](CN1CCC(n2c(=O)[nH]c3cc(Cl)ccc32)CC1)NC(=O)c1ccc2ccccc2c1", "inactive"],
  ["CCCCn1ccc(N2CCC(c3ccccc3)CC2)c(Cl)c1=O", "active"],
  ["O=C(Nc1ccc(F)cc1)N1CCc2ccccc2C1c1ccc(C(F)(F)F)cc1 (stereo not given)", "inactive"],
  ["O=S(=O)(c1cccc2ccccc12)n1ccc2ccc(N3CCN4CCCC4C3)cc21 (stereo not given)", "inactive"],
  ["CN1CCN(C(=O)c2ccc(Nc3nccc(-c4cccs4)n3)cc2Cl)CC1", "inactive"],
  ["Cc1cc(C)c(NC(=O)N(Cc2ccc3c(c2)Cc2ccccc2-3)C2CCCCCC2)c(C)c1", "inactive"],
  ["CC(C)(C)c1ccc(CNC(=S)NCc2ccc(NS(C)(=O)=O)c(F)c2)cc1", "inactive"],
  ["COc1ccccc1-c1c[nH]c2ncc(-c3cncc(C(=O)N(C)C)c3)cc12", "inactive"],
  ["CC(C)(C)c1ccc(-c2nc3ccccc3[nH]2)cc1", "active"],
  ["CCCCc1nc(C)c(CC(=S)N(C)C)c(=O)n1Cc1ccc(-c2ccccc2-c2nn[nH]n2)cc1", "inactive"],
  ["CCOC(=O)CCC(=O)O[C@H]1[C@H](O[C@@H]2[C@@H](C)[C@H](O[C@H]3C[C@@](C)(OC)[C@@H](O)[C@H](C)O3)[C@@H](C)C(=O)O[C@H](CC)[C@@](C)(O)[C@H](O)[C@@H](C)C(=O)[C@H](C)CC2(C)O)O[C@H](C)C[C@@H]1N(C)C (stereo not given in full)", "inactive"],
  ["COc1c(N2CC3CCCNC3C2)c(F)cc2c(=O)c(C(=O)O)cn(C3CC3)c12 (stereo not given)", "inactive"],
  ["COc1ccc2c(c1)C[C@H](C(=O)Nc1ccc(-c3cn[nH]c3)cc1OCCN(C)C)CO2", "inactive"],
  ["Cc1ccc(C(=O)N2CCN(c3ccc([N+](=O)[O-])cc3)CC2)cc1Cl", "inactive"],
  ["CCC[C@@H](NC(=O)N1C(=O)C(CC)(CC)[C@@H]1Oc1ccc(C(=O)N2CCN(C)CC2)cc1)c1ccc2c(c1)OCO2", "inactive"],
  ["C[N+]1(C)[C@@H]2CC[C@H]1CC(OC(=O)C(O)c1ccccc1)C2 (stereo not given in full)", "inactive"],
  ["CC(=O)c1c(OCCN2CCCCC2)c(OCCC(C)c2ccc(F)cc2)c2oc(C)nc2c1C (stereo not given)", "inactive"],
  ["COc1ccc(-c2c(C)c(C(=O)NN3CCCCC3)nn2-c2ccc(Cl)cc2Cl)cc1", "inactive"],
  ["CN(C)CCCNc1nc(CN2CCN(C(c3ccc(Cl)cc3)c3ccc(Cl)cc3)CC2)nc2ccccc12", "inactive"]
]}
